Where do these numbers come from? They come from patent US9340577B2.

targetSystem: DRB1*1302 (Homo sapiens, UniProt P01903+P01911, A100E/A169T/K41T/L162R/M171V/P40S/Q125H/Q178H/Q39Y/Q99D/R42S/S66N/T262R/V115G/W38E/Y61H)
Sequence (P01903 26-254 limits assumed, other chains not shown): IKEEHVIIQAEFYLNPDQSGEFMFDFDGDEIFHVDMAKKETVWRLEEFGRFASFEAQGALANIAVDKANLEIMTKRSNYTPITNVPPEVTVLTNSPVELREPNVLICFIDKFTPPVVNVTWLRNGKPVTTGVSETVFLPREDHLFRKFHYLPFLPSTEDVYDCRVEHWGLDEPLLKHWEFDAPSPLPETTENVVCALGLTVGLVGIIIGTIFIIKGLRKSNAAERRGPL
methodDescription: biochemical
Format: binding
No end group written: not given here.

{"monomerSequence": "TELNTSLQDIEITCV [Peptide 1543.34]", "signQualifier": "=", "IC50 (nM)": 7070}
{"monomerSequence": "LSQVKIPKTITVSTG [Peptide 89.0158]", "signQualifier": ">", "IC50 (nM)": 20000}
{"monomerSequence": "HQVVPPMAVSKAKAC [Peptide 90.0012]", "signQualifier": "=", "IC50 (nM)": 908}
{"monomerSequence": "TTPIIHKLGDRNSLK [Peptide 1601.17]", "signQualifier": "=", "IC50 (nM)": 1480}
{"monomerSequence": "CWNYIDDNLRNALDG [Peptide 90.0041]", "signQualifier": ">", "IC50 (nM)": 20000}
{"monomerSequence": "ALSVSKAKALQAIEL [Peptide 89.0170]", "signQualifier": "=", "IC50 (nM)": 1630}
{"monomerSequence": "QAELETAQALFHAQE [Peptide 89.0022]", "signQualifier": "=", "IC50 (nM)": 2780}
{"monomerSequence": "FIHFIQGAVISFVNS [Peptide 89.0036]", "signQualifier": "=", "IC50 (nM)": 97}
{"monomerSequence": "QMMLETLNNTEYKNE [Peptide 1601.22]", "signQualifier": "=", "IC50 (nM)": 14700}
{"monomerSequence": "DWCVAAFGVTGTVAE [Peptide 89.0042]", "signQualifier": ">", "IC50 (nM)": 20000}
{"monomerSequence": "GIVEQTTTSITSLYQ [Peptide 9000.0054]", "signQualifier": "=", "IC50 (nM)": 14}
{"monomerSequence": "DNELTDDSDIAYYYA [Peptide 90.0085]", "signQualifier": ">", "IC50 (nM)": 20000}
{"monomerSequence": "IVHLKGDPNSLKCLR [Peptide 90.0255]", "signQualifier": "=", "IC50 (nM)": 574}
{"monomerSequence": "PMAVSKAKACQAIEL [Peptide 90.0013]", "signQualifier": "=", "IC50 (nM)": 535}
{"monomerSequence": "RLTVAKGLSTLLHVP [Peptide 89.0028]", "signQualifier": "=", "IC50 (nM)": 675}
{"monomerSequence": "IWEVHMENESIYCPD [Peptide 90.0237]", "signQualifier": "=", "IC50 (nM)": 1960}
{"monomerSequence": "PPLLITTNINPMLDA [Peptide 89.0139]", "signQualifier": ">", "IC50 (nM)": 20000}
{"monomerSequence": "FQVIELQMALETLSK [Peptide 89.0182]", "signQualifier": ">", "IC50 (nM)": 20000}
{"monomerSequence": "QWVLTAAHCLKKNSQ [Peptide 68.0004]", "signQualifier": ">", "IC50 (nM)": 20000}
{"monomerSequence": "ETCMLIQPPKLRSSV [Peptide 89.0029]", "signQualifier": "=", "IC50 (nM)": 3050}
{"monomerSequence": "YRHYQYSLYGKTLEE [Peptide 1543.58]", "signQualifier": "=", "IC50 (nM)": 26}
{"monomerSequence": "CWTYFDNYMRNALDG [Peptide 89.0090]", "signQualifier": ">", "IC50 (nM)": 20000}
{"monomerSequence": "QIQVFETLEET [Peptide 1385.01]", "signQualifier": ">", "IC50 (nM)": 20000}
{"monomerSequence": "TPEWIEQQTVLQHSF [Peptide 89.0104]", "signQualifier": ">", "IC50 (nM)": 20000}
{"monomerSequence": "STWHWTGCNKNTGIL [Peptide 1601.38]", "signQualifier": "=", "IC50 (nM)": 487}
{"monomerSequence": "DYVLDLQPEATDLHC [Peptide 1543.10]", "signQualifier": ">", "IC50 (nM)": 20000}

----------
targetSystem: DR7 (DRB1*0701) (Homo sapiens, UniProt P01903+P01911, A100R/A102G/A103Q/D57E/D86V/E43K/F76Y/K127E/L162R/M171V/P40G/Q125H/Q99D/R33Q/R42Y/R54Q/S133A/S66F/T210M/V115G/Y107V/Y59L/Y89S)
methodDescription: biochemical
Type: binding

{"compound": "CC[C@H](C)[C@H](NC(=O)[C@@H](NC(=O)[C@H](CCSC)NC(=O)[C@H](Cc1ccc(O)cc1)NC(=O)CNC(=O)[C@@H](NC(=O)[C@H](CO)NC(=O)[C@@H](NC(=O)[C@H](CCC(N)=O)NC(=O)[C@@H](NC(=O)[C@H](CO)NC(=O)[C@H](CC(N)=O)NC(=O)[C@@H]1CCCN1C(=O)[C@@H](NC(=O)[C@@H](N)[C@@H](C)O)[C@@H](C)CC)C(C)C)[C@@H](C)CC)C(C)C)[C@@H](C)O)C(=O)O [Peptide 1601.42]", "unitsOfMeasure": "nM", "signQualifier": "=", "IC50": 9}
{"compound": "CC[C@H](C)[C@H](NC(=O)[C@@H](NC(=O)[C@@H]1CCCN1C(=O)CNC(=O)[C@@H](NC(=O)[C@H](CC(C)C)NC(=O)[C@H](CCC(=O)O)NC(=O)[C@H](C)NC(=O)[C@@H](N)Cc1ccccc1)C(C)C)C(C)C)C(=O)N1CCC[C@H]1C(=O)N[C@@H](CCC(N)=O)C(=O)N[C@@H](CC(=O)O)C(=O)N[C@@H](Cc1c[nH]c2ccccc12)C(=O)N[C@@H](CO)C(=O)N[C@H](C(=O)O)[C@@H](C)O [Peptide 68.0056]", "unitsOfMeasure": "nM", "signQualifier": ">", "IC50": 20000}
{"compound": "CC[C@H](C)[C@H](N)C(=O)N[C@@H](CCC(=O)O)C(=O)N[C@@H](Cc1ccccc1)C(=O)N[C@H](C(=O)N[C@H](C(=O)N[C@@H](Cc1ccccc1)C(=O)N[C@@H](CC(C)C)C(=O)NCC(=O)N[C@@H](C)C(=O)N[C@@H](CC(C)C)C(=O)N[C@@H](CCCCN)C(=O)N[C@@H](CO)C(=O)N[C@@H](Cc1ccccc1)C(=O)N[C@@H](CC(C)C)C(=O)N[C@@H](CCCCN)C(=O)O)[C@@H](C)O)[C@@H](C)CC [Peptide 89.0033]", "unitsOfMeasure": "nM", "signQualifier": "=", "IC50": 410}
{"compound": "CC[C@H](C)[C@H](NC(=O)CNC(=O)[C@H](Cc1ccc(O)cc1)NC(=O)[C@H](CC(C)C)NC(=O)[C@H](CO)NC(=O)[C@H](CC(C)C)NC(=O)[C@H](CC(C)C)NC(=O)[C@H](CO)NC(=O)[C@@H](N)CC(C)C)C(=O)N[C@@H](Cc1c[nH]cn1)C(=O)N[C@@H](CCCCN)C(=O)N[C@@H](CCC(N)=O)C(=O)N[C@@H](CCCCN)C(=O)N[C@@H](CCC(=O)O)C(=O)N[C@@H](CCCCN)C(=O)O [Peptide 68.0045]", "unitsOfMeasure": "nM", "signQualifier": ">", "IC50": 20000}
{"compound": "CSCC[C@H](NC(=O)[C@H](CC(C)C)NC(=O)[C@@H]1CCCN1C(=O)[C@@H](NC(=O)[C@H](CS)NC(=O)[C@H](CC(=O)O)NC(=O)[C@@H](NC(=O)[C@H](CCCNC(=N)N)NC(=O)[C@H](CC(C)C)NC(=O)[C@@H](NC(=O)[C@H](Cc1ccc(O)cc1)NC(=O)[C@@H](N)CC(N)=O)[C@@H](C)O)C(C)C)[C@@H](C)O)C(=O)N[C@@H](Cc1ccc(O)cc1)C(=O)N[C@@H](CO)C(=O)N[C@@H](CC(C)C)C(=O)O [Peptide 68.0112]", "unitsOfMeasure": "nM", "signQualifier": ">", "IC50": 20000}

----------
targetSystem: DRB1*0901 (Homo sapiens, UniProt P01903+P01911, A100R/A103E/D57H/D86V/F55Y/F60I/F76Y/I96F/K127E/L162R/M171V/P40D/Q125H/Q99R/R33Q/R42F/S133A/S66N/T210M/V115G/W38K/Y107V/Y59G/Y89S)
methodDescription: biochemical
Format: binding
Catalogue of IC50 readings, one per entry.

{"compound": "CC[C@H](C)[C@H](NC(=O)CNC(=O)[C@@H](NC(=O)[C@H](CCCCN)NC(=O)[C@H](Cc1ccc(O)cc1)NC(=O)[C@H](Cc1c[nH]c2ccccc12)NC(=O)[C@H](Cc1ccc(O)cc1)NC(=O)[C@@H](N)CC(C)C)[C@@H](C)O)C(=O)N[C@@H](CO)C(=O)N[C@@H](CC(N)=O)C(=O)N[C@H](C(=O)N[C@@H](CO)C(=O)N[C@@H](CCC(=O)O)C(=O)N[C@H](C(=O)N[C@@H](Cc1ccc(O)cc1)C(=O)O)C(C)C)[C@@H](C)CC [Peptide 89.0009]", "IC50": "631 nM"}
{"compound": "CC[C@H](C)[C@H](NC(=O)[C@H](CO)NC(=O)[C@H](CO)NC(=O)[C@H](CC(=O)O)NC(=O)[C@H](C)NC(=O)[C@H](CC(N)=O)NC(=O)[C@@H](NC(=O)[C@H](Cc1ccc(O)cc1)NC(=O)[C@H](C)NC(=O)[C@@H](NC(=O)CNC(=O)[C@H](CCCNC(=N)N)NC(=O)[C@@H](N)CCC(=O)O)C(C)C)[C@@H](C)CC)C(=O)N[C@@H](CCC(=O)O)C(=O)NCC(=O)O [Peptide 68.0109]", "IC50": "> 20000 nM"}
{"compound": "CC[C@H](C)[C@H](NC(=O)[C@@H]1CCCN1C(=O)[C@H](Cc1c[nH]cn1)NC(=O)[C@@H](NC(=O)[C@@H]1CCCN1C(=O)[C@@H](NC(=O)[C@H](CO)NC(=O)[C@@H]1CCCN1C(=O)[C@H](CC(C)C)NC(=O)CNC(=O)[C@@H](NC(=O)[C@H](C)NC(=O)[C@H](CCC(=O)O)NC(=O)[C@H](C)N)C(C)C)[C@@H](C)CC)C(C)C)C(=O)NCC(=O)O [Peptide 68.0101]", "IC50": "> 20000 nM"}
{"compound": "CC[C@H](C)[C@H](NC(=O)[C@@H](NC(=O)[C@@H]1CCCN1C(=O)[C@@H](NC(=O)[C@@H](NC(=O)[C@H](CC(N)=O)NC(=O)CNC(=O)[C@H](CO)NC(=O)[C@H](CS)NC(=O)[C@H](CC(C)C)NC(=O)[C@H](CCCCN)NC(=O)[C@H](CCCNC(=N)N)NC(=O)[C@H](CCCNC(=N)N)NC(=O)[C@@H](N)CCCCN)[C@@H](C)O)[C@@H](C)O)[C@@H](C)CC)C(=O)N[C@@H](Cc1c[nH]cn1)C(=O)O [Peptide 1601.16]", "IC50": "61 nM"}
{"compound": "CC[C@H](C)[C@H](N)C(=O)N[C@@H](CO)C(=O)N[C@H](C(=O)N[C@H](C(=O)N[C@@H](CC(N)=O)C(=O)N[C@@H](CCC(=O)O)C(=O)N[C@@H](CC(=O)O)C(=O)NCC(=O)N[C@@H](CC(N)=O)C(=O)N[C@@H](CCC(=O)O)C(=O)N[C@H](C(=O)N[C@@H](Cc1ccccc1)C(=O)N[C@@H](CC(N)=O)C(=O)N[C@H](C(=O)N[C@@H](CO)C(=O)O)[C@@H](C)O)[C@@H](C)CC)[C@@H](C)CC)[C@@H](C)CC [Peptide 68.0166]", "IC50": "> 20000 nM"}
